Biological target: T1, human interleukin 12 (human, UniProt P29459 23-219; P29460 23-328)
T1 construct: heterodimer of p35 and p40 linked by a disulfide bridge; also called hIL-12; IL-12
T1 sequence (looked up) 1: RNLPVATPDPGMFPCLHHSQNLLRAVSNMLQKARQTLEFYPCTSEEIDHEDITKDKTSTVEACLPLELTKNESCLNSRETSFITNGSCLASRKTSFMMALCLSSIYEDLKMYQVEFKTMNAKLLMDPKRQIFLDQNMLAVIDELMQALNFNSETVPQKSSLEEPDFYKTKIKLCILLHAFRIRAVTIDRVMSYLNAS
T1 sequence (looked up) 2: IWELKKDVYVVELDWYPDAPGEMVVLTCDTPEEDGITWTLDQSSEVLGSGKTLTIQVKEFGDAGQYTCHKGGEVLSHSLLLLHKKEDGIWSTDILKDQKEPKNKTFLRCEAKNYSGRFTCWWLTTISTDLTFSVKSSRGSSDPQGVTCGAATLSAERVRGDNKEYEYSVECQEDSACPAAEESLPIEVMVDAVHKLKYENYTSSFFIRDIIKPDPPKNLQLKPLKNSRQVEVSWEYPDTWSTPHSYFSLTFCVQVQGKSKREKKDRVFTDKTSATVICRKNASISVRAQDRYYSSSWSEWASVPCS
Experiment: RB assay (IL-12 receptor binding)
readout type: IC50 (nM)
Field format: number, assumed nM, no unit text.

binder	measured
136-16 (antibody, V domains shown) VH: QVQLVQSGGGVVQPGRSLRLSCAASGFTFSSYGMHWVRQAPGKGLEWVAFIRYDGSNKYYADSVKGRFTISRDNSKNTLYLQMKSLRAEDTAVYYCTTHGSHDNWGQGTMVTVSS VL: SYVLTQPPSVSGTPGQRVTISCSGGRSNIGSNTVKWYQQLPGTAPKLLIYGNDQRPSGVPDRFSGSKSGTSASLAITGVQAEDEADYYCQSYDRRFTGSRVFGTGTKVTVL	0.3

# input for lookup
Query string: Any idea what its IC50 is? The binder is 136-15M1 (antibody, V domains shown) VH: QVQLVQSGGGVVQPGRSLRLSCAASGFTFSSYGMHWVRQAPGKGLEWVAFIRYDGSNKYYADSVKGRFTISRDNSKNTLYLQMKSLRAEDTAVYYCAKHGSHDNWGQGTMVTVSS VL: SYVLTQPPSVSGTPGQRVTISCSGGRSNIGSNTVKWYQQLPGTAPKLLIYGNDQRPSGVPDRFSGSKSGTSASLAITGVQAEDEADYYCQSYDRGFTGSRVFGTGTKVTVLG
Result string: 0.4
